Molecular target: Human HSP90 alpha (Homo sapiens)
Construct: made in house; host or cells: E. coli BL21 codon plus (Stratagene)
Assay: Measurement of HSP90 enzyme inhibitory activity (ATPase, malachite green)
Format: biochemical
Conditions: purified human HSP90 alpha, 1 mM ATP added, 37° C., two hours; read-out: Enzyme inhibitory activity (IC50, μM) Human HSP 90α
Parameter measured: IC50 (µM)

Solved cases below.
Nc1nc(SCCNC(=O)CO)cc(-c2c(Cl)cc3c4c(cccc24)COC3)n1 [Example 331] = 1.5
CSc1nc(N)nc(-c2cc(-c3ncccn3)c(Cl)cc2Cl)n1 [Example 24] = 2.1
Nc1nc(SCCC(=O)NC[C@@H](O)CO)nc(-c2c(Cl)cc3c4c(cccc24)COC3)n1 [Example 335] = 1.2
NC(=O)NCCSc1cc(-c2c(Cl)cc3c4c(cccc24)COC3)nc(N)n1 [Example 332] = 2.2
COCCNC(=O)CCSc1cc(-c2c(Cl)cc3c4c(cccc24)COC3)nc(N)n1 [Example 319] = 2.1
Nc1nc(SCCCO)nc(-c2c(Cl)cc3c4c(cccc24)COC3)n1 [Example 340] = 3.3

(P) N#CCNC(=O)CSc1cc(-c2c(Cl)cc3c4c(cccc24)COC3)nc(N)n1 [Example 315]
(Q) NC(=O)c1cc(-c2nc(N)nc(SCc3ccccc3)n2)c(Cl)cc1Cl [Example 26]
[ask] Record comparison, field IC50: mark the lower of P and Q . Output the label that corresponds to your choice.
[reply] P
(P: 1.9 µM, Q: 2.8 µM)

====

Target: Human HSP90 alpha (Homo sapiens, UniProt P07900)
Construct: made in house; host or cells: E. coli BL21 codon plus (Stratagene)
Assay: Measurement of HSP90 enzyme inhibitory activity (ATPase, malachite green)
Assay type: biochemical
Details: purified human HSP90 alpha, 1 mM ATP added, 37° C., two hours; read-out: Enzyme inhibitory activity (IC50, μM) Human HSP 90α
Parameter measured: IC50 (µM)

Some solved entries appear below for comparison.
COCCNC(=O)CCSc1nc(N)nc(-c2c(Cl)cc3c4c(cccc24)COC3)n1 [Example 334] = 1.3
COc1ccc(OC)c(Sc2cc(-c3ccc(OCCCO)cc3C)nc(N)n2)c1 [Example 44] = 2.2
COc1ccc(OC)c(Sc2cc(-c3ccc(OCC#N)cc3C)nc(N)n2)c1 [Example 45] = 1.4
Nc1nc(SCC2CNC(=O)O2)cc(-c2c(Cl)cc3c4c(cccc24)COC3)n1 (centres unmarked) [Example 330] = 1.2
COc1ccc(OC)c(Sc2cc(-c3cc(OCc4ccccc4)c(Cl)cc3Cl)nc(N)n2)c1 [Example 48] = 2.5
CNC(=O)C(C)CSc1nc(N)nc(-c2c(Cl)cc3c4c(cccc24)COC3)n1 (centres unmarked) [Example 337] = 1.5
NC(=O)CCCSc1nc(N)nc(-c2c(Cl)cc3c4c(cccc24)CSC3)n1 [Example 343] = 1.8
Nc1nc(SCCNC(=O)CO)nc(-c2c(Cl)cc3c4c(cccc24)COC3)n1 [Example 342] = 1.3

(I) CC(=O)NCCSc1nc(N)nc(-c2cc(OCC#N)c(Cl)cc2Cl)n1 [Example 59]
(II) CCOC(=O)c1cnc(Sc2cc(-c3cc(OCC#N)c(Cl)cc3Cl)nc(N)n2)[nH]1 [Example 55]
(III) CSc1nc(N)nc(-c2ccccc2)n1 [reference compound]
[ask] Arrange the 3 entries by IC50 so the values rise. Write the labels out in the order the request specifies.
[reply] I, II, III

====

Tested on: HCT116 cells
Assay: Measurement of cell growth inhibition (Cell Counting Kit-8, four days)
Type: cell-based
Details: Homo sapiens, HCT-116, 96 h; HCT116 colon cancer cell line, four days culture; read-out: Cell growth inhibitory activity (IC50, μM) HCT116
Parameter measured: IC50 (µM)

(A) NC(=O)NCCSc1cc(-c2c(Cl)cc3c4c(cccc24)COC3)nc(N)n1
(B) N#CCOc1cc(-c2nc(N)nc(SCCC(=O)N3CCOCC3)n2)c(Cl)cc1Cl
(C) CC(CSc1cc(-c2c(Cl)cc3c4c(cccc24)COC3)nc(N)n1)C(N)=O (centres unmarked)
[ask] Task field, ranking: reported IC50, descending order. Field: ranking. Enter the labels in the order requested.
[reply] B, A, C
(B: 0.74 µM, A: 0.47 µM, C: 0.13 µM)

(A) COc1cc(C(=O)N2CCN(C)CC2)ccc1Sc1nc(N)nc(-c2cc(OCC#N)c(Cl)cc2Cl)n1
(B) NC(=O)CCCSc1cc(-c2c(Cl)cc3c4c(cccc24)COC3)nc(N)n1
[ask] Recorded IC50 values differ for A and B ; which one is higher? // caller expects the label of the chosen entry
[reply] A

(P) Nc1nc(SCCC(=O)NCCO)cc(-c2c(Cl)cc3c4c(cccc24)COC3)n1
(Q) CNC(=O)C(C)CSc1nc(N)nc(-c2c(Cl)cc3c4c(cccc24)COC3)n1 (centres unmarked)
(R) CNC(=O)C(C)CSc1cc(-c2c(Cl)cc3c4c(cccc24)COC3)nc(N)n1 (centres unmarked)
(S) COC(=O)c1cc(-c2nc(N)nc(SCC(O)CO)n2)c(C)cc1C (centres unmarked)
[ask] Rank items: key IC50, increasing. Give me the labels in the order the question wants.
[reply] Q, R, P, S

====

Biological target: Human HSP90 alpha (Homo sapiens, UniProt P07900)
Construct: made in house; host or cells: E. coli BL21 codon plus (Stratagene)
Assay: Measurement of HSP90 enzyme inhibitory activity (ATPase, malachite green)
Type: biochemical
Conditions: purified human HSP90 alpha, 1 mM ATP added, 37° C., two hours; read-out: Enzyme inhibitory activity (IC50, μM) Human HSP 90α
Protocol: HSP90 enzyme inhibitory activity of the compounds of the present invention represented by formula (1) was measured by the following method. Among the 6-phenyl-N-phenyl-(1,3,5)triazin/(1,3)pyrimidin-2,4-diamine derivatives which are known LPAAT-β inhibitors, the following two compounds were used as comparative compounds, and their HSP90 enzyme inhibitory activities were measured similarly by the following method. […]
Parameter measured: IC50 (µM)

N#CCOc1cc(-c2cc(Sc3nc4ccccc4[nH]3)nc(N)n2)c(Cl)cc1Cl = 1.5
Nc1nc(SCc2ccccc2)nc(-c2cc(C(=O)NC(CO)CO)c(Cl)cc2Cl)n1 = 1.2
CC(=O)Nc1ccccc1CSc1nc(N)nc(-c2c(Cl)cc3c4c(cccc24)COC3)n1 = 1
COc1ccc(OC)c(Sc2cc(-c3ccc(Cl)cc3Cl)nc(N)n2)c1 = 1.8
COC(=O)c1cc(-c2nc(N)nc(SCC(O)CO)n2)c(C)cc1C (centres unmarked) = 1.4

====

Tested on: HCT116 cells
Experiment: Measurement of cell growth inhibition (Cell Counting Kit-8, four days)
Type: cell-based
Conditions: Homo sapiens, HCT-116, 96 h; HCT116 colon cancer cell line, four days culture; read-out: Cell growth inhibitory activity (IC50, μM) HCT116
Parameter measured: IC50 (µM)

// known answers, use as guide
Nc1nc(SCC2CNC(=O)O2)cc(-c2c(Cl)cc3c4c(cccc24)COC3)n1 (stereo not shown) = 2.1
NC(=O)CSc1cc(-c2c(Cl)cc3c4c(cccc24)COC3)nc(N)n1 = 1.1
Nc1nc(SCCC(=O)NC[C@@H](O)CO)nc(-c2c(Cl)cc3c4c(cccc24)COC3)n1 = 0.49
Nc1nc(SCCC(=O)NC[C@@H](O)CO)cc(-c2c(Cl)cc3c4c(cccc24)COC3)n1 = 0.63
COc1ccc(Oc2nc(N)nc(-c3c(Cl)cc4c5c(cccc35)COC4)n2)cc1OC = 6.1

(a) COc1ccc(OC)c(Sc2cc(-c3ccc(OCC(N)=O)cc3C)nc(N)n2)c1
(b) CSc1nc(N)nc(-c2cc(-c3ncccn3)c(Cl)cc2Cl)n1
[ask] Just curious, which one has the larger IC50 reading, a or b ? Select an item and report its label.
[reply] a
(a: 8.1 µM, b: 1 µM)

====

System: HCT116 cells
Experiment: Measurement of cell growth inhibition (Cell Counting Kit-8, four days)
Format: cell-based
Conditions: Homo sapiens, HCT-116, 96 h; HCT116 colon cancer cell line, four days culture; read-out: Cell growth inhibitory activity (IC50, μM) HCT116
Parameter measured: IC50 (µM)

Some solved cases for reference:
Nc1nc(SCc2ccccc2)nc(-c2cc(C(=O)NC(CO)CO)c(Cl)cc2Cl)n1 [Example 28] = 1.2
CC(=O)Nc1ccccc1CSc1nc(N)nc(-c2c(Cl)cc3c4c(cccc24)COC3)n1 [Example 143] = 0.28

(P) NC(=O)c1cc(-c2nc(N)nc(SCc3ccccc3)n2)c(Cl)cc1Cl [Example 26]
(Q) COc1ccc(OC)c(Sc2nc(N)nc(-c3c(Cl)cc4c5c(cccc35)COC4)n2)c1 [Example 145]
(R) N#CCNC(=O)CSc1nc(N)nc(-c2c(Cl)cc3c4c(cccc24)COC3)n1 [Example 333]
[ask] Hey, can you sort those compounds up there by IC50, smallest first? // list labels; follow requested order
[reply] Q, R, P
(Q: 0.24 µM, R: 0.38 µM, P: 1.3 µM)

(I) N#CCNC(=O)CSc1cc(-c2c(Cl)cc3c4c(cccc24)COC3)nc(N)n1 [Example 315]
(II) CC(=O)NCCSc1nc(N)nc(-c2cc(OCC#N)c(Cl)cc2Cl)n1 [Example 59]
[ask] From the items above, decide which of I and II has the lower IC50 reading. State the label of the item chosen.
[reply] II
(II: 0.12 µM, I: 2.1 µM)

Just for reference, patent US8193351B2 is where these values come from.
